Tested on: HCT-116
Test: Intrinsic cytotoxic activity against multidrug resistant HCT116/VM46 cell line
Assay type: functional, cell-based
Conditions: Homo sapiens
quantityKind: IC50

Query IC50 on HCT-116 for COc1ccc(C2CC2NNC(=O)c2c(-c3ccc(OC)c(OC)c3)c3c4cc(OC)c(OC)cc4oc(=O)c3n2CCc2ccc(OC)c(OC)c2)cc1 (stereo unspecified)
> 100 µM

---

Tested on: HCT-116
Assay: inhibitory activity against Multidrug resistant HCT116/VM46 cell line treated with Vinblastine at a compound concentration 7.5 uM
Type: functional, cell-based
Settings: Homo sapiens
quantityKind: pIC50
By convention, pIC50 is the negative base-10 log of a molar concentration.

Query pIC50 on HCT-116 for `COc1ccc(CCn2c(C(=O)N(C)C)c(-c3ccc(OC)c(OC)c3)c3c4cc(OC)c(OC)cc4oc(=O)c32)cc1OC`
9.70
